# Test system: Aspergillus flavus
# test.details: Antifungal activity against Aspergillus flavus assessed as reduction in fungal cell growth incubated for 48 hrs by serial dilution method
# Format: functional
The source made the active and inactive calls. The rule behind the calls is not given here.
parameter.measured: MIC

> print(dat)
                                   compound         measured.on  measured.result
1  CCCCC(=O)N1CCCC2(O)c3ccccc3N(C)C12 (stereo not given)  Aspergillus flavus         inactive
2  CCCCCC(=O)N1CCCC2(O)c3ccccc3N(C)C12 (stereo not given)  Aspergillus flavus         inactive
3  CN1c2ccccc2C2(O)CCCN(C(=O)c3ccccc3)C12 (stereo not given)  Aspergillus flavus         inactive
4  CCCCC(=O)N1CCC2(Cc3cccc(C)c3)c3ccccc3N(Cc3cccc(C)c3)C12 (stereo not given)  Aspergillus flavus        250 µg/mL

Query :: Reported MIC for Aspergillus flavus, given Cc1ccc(S(=O)(=O)N2CCC3(Cc4cccc(C)c4)c4ccccc4N(Cc4cccc(C)c4)C23)cc1 (stereo not given) ?
Result :: 250 µg/mL
